meta.source: PubChem BioAssay AID463204

# Tested on: S. cerevisiae Mot1-301 ts growth rescue, BacTiter-Glo ATP luminescence
# experimental-details: restored Mot1-301 yeast growth at 38.5C – whole organism, S. cerevisiae, Mot1-301 ts mutant, luminescence, dose retest, SUMOylation pathway inhibitor project, confirmation (AID 463204);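 also: growth at restrictive 38.5 degrees C of Mot1-301 OY566 strain; actives raise luminescence by restoring growth of the ts mutant at high temperature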
The source made the active and inactive calls.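 The calls were made as follows: active = AC50 no more than ten times the top concentration tested, that is within one log above it; inconclusive = flat curve fit with activity between 30% and 70%, or invalid poor fit; inactive = AC50 beyond ten times the top tested dose.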
Outcome codes: active, inactive

[
  {
    "compound": "COc1cc(C(=O)COC(=O)c2cc([N+](=O)[O-])ccc2N2CCOCC2)ccc1OC(F)F",
    "class-label": "active"
  },
  {
    "compound": "CCc1ccc(S(=O)(=O)NCc2cccnc2)cc1",
    "class-label": "inactive"
  },
  {
    "compound": "CC(NC(=O)c1cnc2n(c1=O)CCS2)c1ccccc1 (stereo unspecified)",
    "class-label": "inactive"
  },
  {
    "compound": "COCCCNC(=O)c1cc(C(=O)c2c(-c3c(Cl)cccc3Cl)noc2C)c[nH]1",
    "class-label": "inactive"
  },
  {
    "compound": "O=[N+]([O-])c1ccc(N/N=C/c2cccc(O)c2)cc1",
    "class-label": "active"
  },
  {
    "compound": "O=C(/C=C/N1CCOCC1)c1coc2ccccc12",
    "class-label": "inactive"
  },
  {
    "compound": "COc1ccc(Cl)cc1NC(=O)C1CCCN(c2cc(C)nc3ncnn23)C1 (stereo unspecified)",
    "class-label": "inactive"
  },
  {
    "compound": "CCNC(=O)NC1c2ccccc2CSc2ccccc21 (stereo unspecified)",
    "class-label": "inactive"
  },
  {
    "compound": "O=C(CSc1nnc(NC(=O)CN2CCOCC2)s1)Nc1ccccc1",
    "class-label": "inactive"
  },
  {
    "compound": "O=C(O)CCSc1ccc([N+](=O)[O-])cc1[N+](=O)[O-]",
    "class-label": "active"
  },
  {
    "compound": "CCC1(CC)NC(=O)N(CC(=O)OCC(=O)NC(=O)c2ccccc2)C1=O",
    "class-label": "inactive"
  }
]

----------
# Test system: S. cerevisiae Mot1-301 ts growth rescue, BacTiter-Glo ATP luminescence
# experimental-details: restored Mot1-301 yeast growth at 38.5C – whole organism, S. cerevisiae, Mot1-301 ts mutant, luminescence, dose retest, SUMOylation pathway inhibitor project, confirmation (AID 463204);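 also: growth at restrictive 38.5 degrees C of Mot1-301 OY566 strain; actives raise luminescence by restoring growth of the ts mutant at high temperature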
Activity calls are given as the source filed them.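 How the source made its calls: active means AC50 no more than ten times the top concentration tested, that is within one log above it; inconclusive means flat curve fit with activity between 30% and 70%, or invalid poor fit; inactive means AC50 beyond ten times the top tested dose.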
Outcome codes: active, inactive

[
  {
    "compound": "N#CC1=C(N)Oc2c(ccc3ccccc23)C1c1cccs1 (stereo unspecified)",
    "class-label": "inactive"
  },
  {
    "compound": "CN(C(=O)C1CCCO1)c1nnc(-c2cnccn2)s1 (stereo unspecified)",
    "class-label": "inactive"
  },
  {
    "compound": "COc1ccc(NC2=C(C)C(=O)CC2)cc1",
    "class-label": "inactive"
  },
  {
    "compound": "Cc1cc(C)n(-c2ccc(C(=O)C(C#N)c3nc4ccccc4n3C)cc2)n1 (stereo unspecified)",
    "class-label": "inactive"
  },
  {
    "compound": "O=C1OC(Cc2ccccn2)C(O)=C1C1=NCCCN1 (stereo unspecified)",
    "class-label": "inactive"
  },
  {
    "compound": "Cc1cccc(NC(=O)CSCC(=O)N2CCCc3ccccc32)c1",
    "class-label": "inactive"
  },
  {
    "compound": "O=c1[nH]cnc2sc3c(c12)CCC3",
    "class-label": "inactive"
  },
  {
    "compound": "Nc1ccc(S(=O)(=O)NNC(=O)C(=O)NNc2ccccc2)cc1",
    "class-label": "inactive"
  },
  {
    "compound": "Cc1nnc(C)n1/N=C/c1cc2ccccc2nc1Cl",
    "class-label": "inactive"
  },
  {
    "compound": "CC1CN(Cc2ccccc2)c2nc3c(c(=O)[nH]c(=O)n3C)n2C1 (stereo unspecified)",
    "class-label": "inactive"
  },
  {
    "compound": "CCCCC(=O)NC(=S)Nc1cccc(C(=O)O)c1",
    "class-label": "inactive"
  },
  {
    "compound": "O=S(=O)(c1ccc(C2CCCCC2)cc1)N1CCCC1",
    "class-label": "inactive"
  },
  {
    "compound": "CCOC(=O)N1CCN(C(=O)CNC(=O)c2nn(-c3ccc(OC)c(OC)c3)c(=O)c3ccccc23)CC1",
    "class-label": "inactive"
  },
  {
    "compound": "O=C(c1ccco1)N1CCN(C(=O)C2Cc3ccccc3CN2S(=O)(=O)c2ccc(F)cc2)CC1 (stereo unspecified)",
    "class-label": "inactive"
  },
  {
    "compound": "CN(C)C(/C=C/Nc1cccc(Br)c1)=C(C#N)C#N",
    "class-label": "inactive"
  },
  {
    "compound": "COc1ccc(S(=O)(=O)N2CCCOC2CNC(=O)C(=O)NCCCN2CCOCC2)cc1C (stereo unspecified)",
    "class-label": "inactive"
  },
  {
    "compound": "COCCCNS(=O)(=O)c1ccc(Oc2ncc(C(F)(F)F)cc2Cl)cc1",
    "class-label": "inactive"
  },
  {
    "compound": "Clc1cnc(Oc2ccc(Oc3ncc(Cl)cc3Cl)cc2)c(Cl)c1",
    "class-label": "inactive"
  },
  {
    "compound": "COc1ccc(OC)c(NC(=O)CN(C)S(=O)(=O)c2ccc(Cl)cc2)c1",
    "class-label": "inactive"
  },
  {
    "compound": "CCOP(=O)(OCC)C(NC(=O)c1cccc(C)c1)C(Cl)(Cl)Cl (stereo unspecified)",
    "class-label": "inactive"
  },
  {
    "compound": "CC1(C)Cc2c(c(N3CCCC3)nc3sc4c(N5CCN(CCO)CC5)ncnc4c23)CO1",
    "class-label": "inactive"
  },
  {
    "compound": "Cc1nc(NC(=O)CSc2nc(N)cc(N)n2)sc1C",
    "class-label": "inactive"
  },
  {
    "compound": "COc1ccc(C(=O)NC(=S)Nc2ccc(CN3CCCCC3)cc2)cc1Cl",
    "class-label": "inactive"
  },
  {
    "compound": "Cc1c(O)ccc(C(=O)CN2C(=O)c3ccccc3C2=O)c1O",
    "class-label": "inactive"
  },
  {
    "compound": "CC(C)Sc1ccc(C(=O)Nc2ccc(F)cc2F)cn1",
    "class-label": "inactive"
  },
  {
    "compound": "CC1CCN(CCCCOc2ccc(Cl)cc2)CC1",
    "class-label": "inactive"
  },
  {
    "compound": "CCCN1C(=O)c2ccccc2NC1c1ccc(C)cc1 (stereo unspecified)",
    "class-label": "inactive"
  },
  {
    "compound": "O=C(Nc1ccc2ccccc2c1)N1CCCN(CCOc2ccccc2)CC1",
    "class-label": "inactive"
  },
  {
    "compound": "CC1Cc2ccccc2N1C(=O)CNc1cccc(S(=O)(=O)N2CCCC2)c1 (stereo unspecified)",
    "class-label": "inactive"
  },
  {
    "compound": "CCNc1nc(NCC)nc(SCCOC(=O)Nc2ccccc2)n1",
    "class-label": "inactive"
  },
  {
    "compound": "CC(OC(=O)c1cc(S(=O)(=O)N2CCOCC2)ccc1F)C(=O)NCc1ccc2c(c1)OCO2 (stereo unspecified)",
    "class-label": "inactive"
  },
  {
    "compound": "N/C(=N\\N=C\\c1ccc(O)cc1)c1nonc1N",
    "class-label": "inactive"
  },
  {
    "compound": "CCCCn1c(=O)[nH]c(=O)c2c1nc(COc1ccc(C#N)cc1)n2CCC",
    "class-label": "inactive"
  },
  {
    "compound": "CCc1cc2c(=O)c(-c3nc4ccccc4[nH]3)coc2c(CN2CCCCC2)c1O",
    "class-label": "inactive"
  },
  {
    "compound": "CN(C)CCCN(Cc1ccccc1)C(=S)Nc1ccc(F)c(Cl)c1",
    "class-label": "inactive"
  },
  {
    "compound": "CC(C)C(=O)NNc1ccc(C(F)(F)F)cn1",
    "class-label": "inactive"
  },
  {
    "compound": "CC1=C/C(=N\\OS(=O)(=O)c2ccccc2)C(C(C)C)=CC1=O",
    "class-label": "active"
  },
  {
    "compound": "COc1cc(C(=O)Oc2cccnc2)cc(OC)c1OC",
    "class-label": "inactive"
  },
  {
    "compound": "O=C(COC(=O)C1COc2ccccc2O1)NC1CCS(=O)(=O)C1 (stereo unspecified)",
    "class-label": "inactive"
  },
  {
    "compound": "Cc1nn(C)c(C)c1-c1c(C#N)c(N)nc2c1CCCCCC2",
    "class-label": "active"
  },
  {
    "compound": "O=C(CN1CCN(Cc2ccc(F)cc2)CC1)NCc1ccccc1",
    "class-label": "inactive"
  },
  {
    "compound": "O=C(COc1ccccc1Cl)c1ccc[nH]1",
    "class-label": "inactive"
  },
  {
    "compound": "COc1ccc(-c2nnc(SCC(=O)N3CCCCC3)o2)cc1",
    "class-label": "inactive"
  },
  {
    "compound": "CCOC(=O)Cn1c(=O)n(Cc2ccco2)c(=O)c2ccc(C(=O)NCCc3ccccc3)cc21",
    "class-label": "inactive"
  },
  {
    "compound": "CCOC(=O)C1CCCN(C(=O)c2cc(-c3ccc(F)cc3)nc3ccccc23)C1 (stereo unspecified)",
    "class-label": "inactive"
  },
  {
    "compound": "CN(C)CCOC(c1ccc(Cl)cc1)c1ccccn1 (stereo unspecified)",
    "class-label": "inactive"
  }
]
